Here, each record is paired with measured Relative blood pressure lowering activity data.
# System: blood pressure
# Experiment summary: Blood pressure lowering in conscious, spontaneous hypertensive rats
# Assay type: in vivo, rat
# Recorded conditions: relative to 5,6-dihydroprostacyclin = 1.0; conscious spontaneous hypertensive rats, intravenous
Measured endpoint: Relative blood pressure lowering activity

| Compound | Reported result |
| --- | --- |
| CCCCCC(O)C=CC1C(O)CC2OC(CCCCC(=O)O)CC21 (centres unmarked) [5,6-Dihydroprostacyclin, 5,6-dihydroprostacyclin, reference compound] | 1.0 |
| O=C(O)c1cccc(/C=C2/C[C@@H]3[C@@H](/C=C/[C@@H](O)C4CCCCC4)[C@H](O)C[C@@H]3O2)c1 [Example 3b] | 0.25 |
| CCCCC[C@](C)(O)/C=C/[C@@H]1[C@H]2C/C(=C/c3cccc(C(=O)O)c3)O[C@H]2C[C@H]1O [Example 1e)i)] | 0.1 |
| CCCCC[C@](C)(O)/C=C/[C@@H]1[C@H]2C/C(=C\c3cccc(C(=O)O)c3)O[C@H]2C[C@H]1O [1e)ii)] | 0.014 |
| CCCCC(CC)[C@H](O)/C=C/[C@@H]1[C@H]2C/C(=C/c3cccc(C(=O)O)c3)O[C@H]2C[C@H]1O (some centres unmarked) [Example 4b] | 0.012 |

These measurements were taken from patent US4372971A.
